Where do the numbers come from? From PubChem BioAssay AID256.

Recorded T/C by entry
# System: CD2F1 mice, L1210 leukemia ip, survival T/C
# protocol: NCI In Vivo Anticancer Drug Screen. Data for tumor model L1210 Leukemia (intraperitoneal) in CD2F1 (CDF1) mice
# conditions used: endpoint: mean survival time; dose: 12.5 mg/kg/injection; schedule: Q01DX009 (ip); vehicle: saline with Tween-80; higher = longer survival
Inconclusive results and toxic doses are left out.

>  <compound smiles>
Cc1cc(NCCN(C(C)C)C(C)C)nc(Nc2nc3ccc(Cl)cc3[nH]2)n1

>  <T/C>
92 % of control

$$$$
>  <compound smiles>
O=[N+]([O-])c1ccc(/C=N/O)s1

>  <T/C>
106 % of control

$$$$

Prompt: Specify T/C for COC1=CC(=O)C(OC)=C(OC)C1=O and stop.
Response: 97 % of control

Prompt: Using known records, supply T/C for C/C=C/c1cc2c(c(=O)o1)C(=O)[C@@H](O)[C@H](C)O2
Response: 105 % of control

* * *

# System: CD2F1 mice, L1210 leukemia ip, survival T/C
# protocol: NCI In Vivo Anticancer Drug Screen. Data for tumor model L1210 Leukemia (intraperitoneal) in CD2F1 (CDF1) mice
# conditions used: endpoint: mean survival time; dose: 12.5 mg/kg/injection; schedule: Q01DX009 (ip); vehicle: saline; higher = longer survival
Toxic doses and inconclusive results are not listed.
T/C: recorded values

>  <compound>
O[Si](O)([O][Sn]([c]1ccccc1)([c]1ccccc1)[c]1ccccc1)[O][Sn]([c]1ccccc1)([c]1ccccc1)[c]1ccccc1

>  <value>
100 % of control

$$$$
>  <compound>
CN(C)c1cc2c3c(c1)CCCN3CCC2

>  <value>
96 % of control

$$$$
>  <compound>
C1CCN(CN2CCCCC2)CC1

>  <value>
103 % of control

$$$$
>  <compound>
CCOC(=O)C1=C(C#N)C2(CCC(OCc3ccccc3)CC2)C(=O)O1 (stereo not drawn)

>  <value>
95 % of control

$$$$

Prompt: Kindly indicate its recorded T/C. Item: CCOC(=O)c1ccc(N2C(=O)C=CC2=O)cc1
Response: 97 % of control

Prompt: # return recorded T/C for input CC(C)=CCC/C(C)=C/COc1ccc(/C=C2/C(=O)N(O)[C@@H](C)C(=O)N2O)cc1
Response: 100 % of control

Prompt: Quick one: give measured T/C for Cn1cnc([N+](=O)[O-])c1Sc1ncn[nH]1
Response: 104 % of control

Prompt: Provide measured T/C value, entry: CS(=O)(=O)C(Br)S(C)(=O)=O
Response: 101 % of control

* * *

# System: CD2F1 mice, L1210 leukemia ip, survival T/C
# protocol: NCI In Vivo Anticancer Drug Screen. Data for tumor model L1210 Leukemia (intraperitoneal) in CD2F1 (CDF1) mice
# conditions used: endpoint: mean survival time; dose: 200.0 mg/kg/injection; schedule: Q01DX001 (ip); vehicle: saline with Tween-80; higher = longer survival
Inconclusive results and toxic doses are left out.
endpoint name: T/C

Before answering, review these 4 worked examples.
>  <compound>
COc1ccc(CC2(C#N)c3ccccc3C=CN2C(=O)c2ccccc2)c([N+](=O)[O-])c1OC (configuration not stated)

>  <experimental target>
CD2F1 mice, L1210 leukemia ip, survival T/C

>  <value>
97 % of control

$$$$
>  <compound>
CC(=O)Nc1ccc(SCCCc2c(N)nc(N)nc2N)cc1

>  <experimental target>
CD2F1 mice, L1210 leukemia ip, survival T/C

>  <value>
100 % of control

$$$$
>  <compound>
NC1=CC(=O)C(c2ccccc2)C1=O (configuration not stated)

>  <experimental target>
CD2F1 mice, L1210 leukemia ip, survival T/C

>  <value>
92 % of control

$$$$
>  <compound>
CC(C)N(CCNc1nc(C(Cl)(Cl)Cl)nc2ccc(Cl)cc12)C(C)C

>  <experimental target>
CD2F1 mice, L1210 leukemia ip, survival T/C

>  <value>
94 % of control

$$$$

Prompt: State its T/C for this compound: Cc1cc(Br)c[nH]c1=O
Response: 108 % of control

Prompt: Determine from records and report T/C for CCCCCCCCCCCCCCCC(=O)OCC1OC(n2ccc(N)nc2=O)C(O)C1O (configuration not stated)
Response: 612 % of control

Prompt: Please report the measured T/C for CC(C)CCCCN(CCCCC(C)C)CC(O)c1cc2c(c3ccccc13)CCCC2 (configuration not stated)
Response: 97 % of control

* * *

# System: CD2F1 mice, L1210 leukemia ip, survival T/C
# protocol: NCI In Vivo Anticancer Drug Screen. Data for tumor model L1210 Leukemia (intraperitoneal) in CD2F1 (CDF1) mice
# conditions used: endpoint: mean survival time; dose: 200.0 mg/kg/injection; schedule: Q04DX003 (ip); vehicle: Klucel (hydroxypropylcellulose) (HPC); higher = longer survival
Inconclusive results and toxic doses are left out.
endpoint name: T/C

Sample answers from the record:
>  <compound smiles>
ClCc1ccc(Cl)c(Cl)c1

>  <T/C>
102 % of control

$$$$
>  <compound smiles>
C#CCCCOC(=O)Nc1ccccc1

>  <T/C>
95 % of control

$$$$

Kindly consider the entry below.
Prompt: Give the measured T/C for N#CCN1CCc2ccccc2C1
Response: 94 % of control

* * *

# Test system: CD2F1 mice, L1210 leukemia ip, survival T/C
# protocol: NCI In Vivo Anticancer Drug Screen. Data for tumor model L1210 Leukemia (intraperitoneal) in CD2F1 (CDF1) mice
# conditions used: endpoint: mean survival time; dose: 200.0 mg/kg/injection; schedule: Q04DX003 (ip); vehicle: saline with Tween-80; higher = longer survival
Toxic doses and inconclusive results are not listed.
endpoint name: T/C

Known results for compounds:
>  <compound>
Cc1ccc(-n2c(O)c(C=N)c(=O)[nH]c2=O)cc1

>  <value>
97 % of control

$$$$
>  <compound>
O=C1OCSc2ccccc21

>  <value>
101 % of control

$$$$

Prompt: Specify T/C for Cn1c2ccccc2c2ccccc21 and stop.
Response: 102 % of control

* * *

# Test system: CD2F1 mice, L1210 leukemia ip, survival T/C
# protocol: NCI In Vivo Anticancer Drug Screen. Data for tumor model L1210 Leukemia (intraperitoneal) in CD2F1 (CDF1) mice
# conditions used: endpoint: mean survival time; dose: 100.0 mg/kg/injection; schedule: Q04DX003 (ip); vehicle: Klucel (hydroxypropylcellulose) (HPC); higher = longer survival
Inconclusive results and toxic doses are left out.
endpoint name: T/C

# annotated cases, reported T/C shown
>  <compound>
Cc1cc(N)ccc1N(c1c(Cl)c(Cl)c(NS(=O)(=O)c2ccccc2)c(Cl)c1Cl)S(=O)(=O)c1ccccc1

>  <T/C>
95 % of control

$$$$
>  <compound>
C(=N\Nc1nc2ccccc2s1)/c1ccc2ccccc2n1

>  <T/C>
95 % of control

$$$$
>  <compound>
CNC(=S)Nc1ccc(OC)c2ccccc12

>  <T/C>
86 % of control

$$$$
>  <compound>
COc1ccc(NC(=O)Nc2cc(C)on2)c(Cl)c1

>  <T/C>
110 % of control

$$$$
>  <compound>
C#CCCCOC(=O)Nc1ccccc1

>  <T/C>
97 % of control

$$$$
>  <compound>
COC(=O)CCC1CCCC(CCC(=O)OC)C1=O (configuration not stated)

>  <T/C>
87 % of control

$$$$

Next compound, please.
Prompt: Give the value of T/C reported for the following: N#CCN1CCc2ccccc2C1
Response: 94 % of control

* * *

# Test system: CD2F1 mice, L1210 leukemia ip, survival T/C
# protocol: NCI In Vivo Anticancer Drug Screen. Data for tumor model L1210 Leukemia (intraperitoneal) in CD2F1 (CDF1) mice
# conditions used: endpoint: mean survival time; dose: 200.0 mg/kg/injection; schedule: Q01DX009 (ip); vehicle: saline with Tween-80; higher = longer survival
Toxic doses and inconclusive results are not listed.
Collected T/C values appear next to each entry.

Look over these answered cases.
>  <compound>
CC(=O)NC1CCCCC1

>  <T/C>
102 % of control

$$$$
>  <compound>
CC(=O)NC(CSCc1c2ccccc2c(C)c2c1ccc1ccccc12)C(=O)O (centres undefined)

>  <T/C>
103 % of control

$$$$

Prompt: Using the record for CC(=O)C(C(C)=O)C1C=CC=CC=C1 , state its measured T/C.
Response: 94 % of control

Prompt: Fill in reported T/C for this entry: S=c1cc(-c2ccccc2)ss1
Response: 97 % of control

* * *

# Test system: CD2F1 mice, L1210 leukemia ip, survival T/C
# protocol: NCI In Vivo Anticancer Drug Screen. Data for tumor model L1210 Leukemia (intraperitoneal) in CD2F1 (CDF1) mice
# conditions used: endpoint: mean survival time; dose: 25.0 mg/kg/injection; schedule: Q04DX002 (ip); vehicle: saline with Tween-80; higher = longer survival
# Description: The antitumor activity of compounds was measured in mice bearing transplantable tumors. Survival or tumor size were measured and the results are expressed as the measurement made in the treated group (T) divided by the measurement made in the vehicle treated control group (C). The tumor model used in this assay is L1210 Leukemia (intraperitoneal) in CD2F1 (CDF1) mice
Inconclusive results and toxic doses are left out.
endpoint name: T/C

Some compounds with known T/C results, for comparison:
>  <compound>
COc1cc([N+](=O)[O-])c(C(=O)O)c(C(=O)O)c1OC

>  <value>
96 % of control

$$$$
>  <compound>
COC1=CC(=O)C=C(OC(C)=O)C12Oc1c(Cl)c(C)c(Cl)c(O)c1C2=O (stereo not given)

>  <value>
102 % of control

$$$$
>  <compound>
CCOP(=S)(N=C=S)OCC

>  <value>
98 % of control

$$$$
>  <compound>
O=C1/C(=C/c2ccccc2)C=C(c2ccccc2)N1Cc1ccccc1

>  <value>
103 % of control

$$$$

Switching to the query record.
Prompt: Query T/C for Cc1cc(OCC2=NCCN2)c(C)c(C)c1Cl
Response: 97 % of control
